Origin of the recorded values: BindingDB's records for doi:10.1111/cbdd.12089

Entries with reported pIC50 on Aurora kinase B (Homo sapiens)
Sequence (Q96GD4 whole entry): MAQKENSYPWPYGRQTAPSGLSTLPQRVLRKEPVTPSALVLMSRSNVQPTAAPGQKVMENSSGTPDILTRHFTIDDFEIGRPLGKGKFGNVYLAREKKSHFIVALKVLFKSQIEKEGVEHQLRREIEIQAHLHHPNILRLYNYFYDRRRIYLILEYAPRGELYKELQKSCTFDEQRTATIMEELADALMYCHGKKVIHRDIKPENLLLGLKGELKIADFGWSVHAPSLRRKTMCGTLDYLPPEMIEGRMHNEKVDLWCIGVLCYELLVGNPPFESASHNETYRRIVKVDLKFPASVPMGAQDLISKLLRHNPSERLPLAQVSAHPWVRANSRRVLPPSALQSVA
pIC50: −log10 of the molar value.
attribute_measured: pIC50

a = CCOC(=O)c1csc2cc(Nc3ncnc4cc(OCCCN(CC)CC)ccc34)ccc12
b = Cc1ccc(Nc2ncnc3cc(OCCCN4CCOCC4)ccc23)cc1Nc1ncc(-c2cccnc2)cn1
Given the two records a and b , choose the one whose pIC50 value is lower. Reply briefly: the label of your chosen item.
a
(a: 6.05, b: 6.72)
